- System: P12-Ichikawa
- assayName: cell viability relative to DMSO control; higher = less cytotoxic
- appliedConditions: RPMI 5 mM glucose + 10% FBS; 48 h; 0.19 µM
Listed here: items and their measured cell viability.
assayMetric: cell viability (%)

[[record]]
molecule = "Cc1nc2cnc3ccc(C#Cc4cccnc4)cc3c2n1-c1ccc(C(C)(C)C#N)cc1"
measurementunits = "%"
resultnumber = 43.5

[[record]]
molecule = "O=C(O)CCC1CCC(c2cc(F)ccc2F)([S+](=O)([O-])c2ccc(Cl)cc2)CC1 (stereo not drawn)"
measurementunits = "%"
resultnumber = 116

[[record]]
molecule = "Cn1cnc2c(F)c(Nc3ccc(Br)cc3F)c(C(=O)NOCCO)cc21"
measurementunits = "%"
resultnumber = 82.7

[[record]]
molecule = "CCC[S+]([O-])c1ccc2[nH]c(NC(=O)OC)nc2c1 (stereo not drawn)"
measurementunits = "%"
resultnumber = 93.9

[[record]]
molecule = "COc1cc(OC2CCN(C)CC2)ccc1Nc1ncc2c(n1)n(C1CCCC1)c(=O)n2C"
measurementunits = "%"
resultnumber = 81.4

[[record]]
molecule = "Cc1c(C)n(Cc2ccc(-c3ccccc3C(=O)O)cc2)c2ccc(C(=O)N[C@@H](C)c3ccc([N+](=O)[O-])cc3)cc12"
measurementunits = "%"
resultnumber = 110

[[record]]
molecule = "C[C@]12CC[C@@H]3c4ccc(O)cc4CC[C@H]3[C@@H]1[C@@H](O)[C@@H](O)[C@@H]2O"
measurementunits = "%"
resultnumber = 118

[[record]]
molecule = "Clc1ccc(-c2nc3sccn3c2/C=N/OCc2ccc(Cl)c(Cl)c2)cc1"
measurementunits = "%"
resultnumber = 108


---

Catalogue of cell viability values
- System: P12-Ichikawa
- assayName: cell viability relative to DMSO control; higher = less cytotoxic
- appliedConditions: RPMI 5 mM glucose + 10% dialyzed FBS; 48 h; 0.569 µM
assayMetric: cell viability (%)

[[record]]
compound = "COCC1(CO)C(=O)C2CCN1CC2 (centres undefined)"
assaymetric = "cell viability"
resultnumber = 96.4

[[record]]
compound = "CC(C)C1NC(=O)C(NC(=O)C2=C3\\N=C\\4/C(=C(C)\\C(=O)\\C(=C4C(=O)NC5C(C)OC(=O)C(C(C)C)N(C)C(=O)CN(C)C(=O)C6CCCN6C(=O)C(NC5=O)C(C)C)N)OC3=C(C)C=C2)C(C)OC(=O)C(C(C)C)N(C)C(=O)CN(C)C(=O)C7CCCN7C1=O (centres undefined)"
assaymetric = "cell viability"
resultnumber = 8.28

[[record]]
compound = "C[C@@]12C(=O)OC(=O)[C@@]1(C)C1CCC2O1"
assaymetric = "cell viability"
resultnumber = 105

[[record]]
compound = "CC1=C(C)C(=O)C(C(CCCCCC(=O)O)c2ccccc2)=C(C)C1=O (centres undefined)"
assaymetric = "cell viability"
resultnumber = 79.2

[[record]]
compound = "O=C(Nc1cccc(C(F)(F)F)c1)Nc1cc([S+](=O)([O-])NC2CC2)ccc1-c1ccsc1"
assaymetric = "cell viability"
resultnumber = 105

[[record]]
compound = "CCC1(c2ccccc2)C(=O)NCNC1=O"
assaymetric = "cell viability"
resultnumber = 117

[[record]]
compound = "O=C(C=CC#Cc1cccc(N[S+](=O)([O-])c2ccccc2)c1)NO"
assaymetric = "cell viability"
resultnumber = 113

[[record]]
compound = "CNCCCC12CCC(c3ccccc31)c1ccccc12"
assaymetric = "cell viability"
resultnumber = 97.7

[[record]]
compound = "CNc1nc(Nc2ccc(C(=O)N3CCOCC3)cc2OC)ncc1Cl"
assaymetric = "cell viability"
resultnumber = 116

[[record]]
compound = "CCN1CCN(c2ccc(Nc3cc(N(C)C(=O)Nc4c(Cl)c(OC)cc(OC)c4Cl)ncn3)cc2)CC1"
assaymetric = "cell viability"
resultnumber = 111

[[record]]
compound = "C[C@]12CCC(=O)C=C1CC[C@@H]1[C@@H]2[C@@H](O)C[C@@]2(C)[C@H]1CC[C@]2(O)C(=O)CO"
assaymetric = "cell viability"
resultnumber = 100

[[record]]
compound = "O=C(O)CCC1CCC(c2cc(F)ccc2F)([S+](=O)([O-])c2ccc(Cl)cc2)CC1 (centres undefined)"
assaymetric = "cell viability"
resultnumber = 124

[[record]]
compound = "C[C@]12COC(=O)C[C@@H]1CC[C@@H]1[C@@H]2CC[C@@]2(C)[C@H]1CC[C@]2(C)O"
assaymetric = "cell viability"
resultnumber = 99.2

[[record]]
compound = "NNCCc1ccccc1"
assaymetric = "cell viability"
resultnumber = 112

[[record]]
compound = "O=C(O)Cn1nnc(-c2cc(N3CCC(Oc4cc(F)ccc4Br)CC3)no2)n1"
assaymetric = "cell viability"
resultnumber = 113

[[record]]
compound = "CC[C@]12CC[C@H]3[C@@H](CCC/4=C/C(=O)CC[C@H]34)[C@@H]1\\C=C/[C@@]2(O)C#C"
assaymetric = "cell viability"
resultnumber = 124

[[record]]
compound = "C[N]1C=C(C=N1)C2=C3\\C=N/NC(=O)C4=C3C(=CC(=C4)NC(=O)[C@H](N)C5CCCCC5)[NH]2"
assaymetric = "cell viability"
resultnumber = 85.4

[[record]]
compound = "O=c1[nH]c(=O)n([C@H]2C[C@H](O)[C@@H](CO)O2)cc1/C=C/Br"
assaymetric = "cell viability"
resultnumber = 103

[[record]]
compound = "S=C(NCc1ccc2c(c1)OCO2)N1CCN(c2ncnc3c2oc2ccccc23)CC1"
assaymetric = "cell viability"
resultnumber = 99


---

- System: P12-Ichikawa
- assayName: cell viability relative to DMSO control; higher = less cytotoxic
- appliedConditions: RPMI 5 mM glucose + 10% dialyzed FBS; 48 h; 15.4 µM
assayMetric: cell viability

[[record]]
compound = "CN1CCN(C2=Nc3cc(Cl)ccc3Nc3ccccc32)CC1"
result = "108%"

[[record]]
compound = "C[N]1C=C(C=N1)C2=C3\\C=N/NC(=O)C4=C3C(=CC(=C4)NC(=O)[C@H](N)C5CCCCC5)[NH]2"
result = "18.4%"

[[record]]
compound = "C[C@]12COC(=O)C[C@@H]1CC[C@@H]1[C@@H]2CC[C@@]2(C)[C@H]1CC[C@]2(C)O"
result = "98.7%"

[[record]]
compound = "c1ccc2[nH]c(-c3cscn3)nc2c1"
result = "109%"

[[record]]
compound = "CCC[S+]([O-])c1ccc2[nH]c(NC(=O)OC)nc2c1 (stereo not given)"
result = "63%"


---

The entries below are paired with their reported cell viability.
- Tested on: P12-Ichikawa
- assayName: cell viability relative to DMSO control; higher = less cytotoxic
- appliedConditions: HPLM + 10% dialyzed FBS; 48 h; 0.00234 µM
assayMetric: cell viability (%)

[[record]]
molecule = "Cc1ccccc1C(=O)c1ccc(Nc2ccc(Br)cc2N)cc1Cl"
measurementunits = "%"
resultnumber = 122

[[record]]
molecule = "Cc1onc(-c2ccccc2Cl)c1C(=O)N[C@@H]1C(=O)N2[C@@H]1SC(C)(C)[C@@H]2C(=O)[O-]"
measurementunits = "%"
resultnumber = 116

[[record]]
molecule = "C[C@@H]1COCCN1c1cc(C2([S@+](C)(=N)[O-])CC2)nc(-c2ccnc3[nH]ccc23)n1"
measurementunits = "%"
resultnumber = 103

[[record]]
molecule = "ClC1=CC=C(C=C1)C(C#N)C2=C(Cl)C=C(C=C2Cl)N3\\N=C/C(=O)NC3=O (configuration not stated)"
measurementunits = "%"
resultnumber = 106

[[record]]
molecule = "CC(C)OC(=O)/C1=C/N(CC(C)(C)C2=C1[NH]C3=CC=CC=C23)C(=O)C4=CC=C(F)C(=C4)F"
measurementunits = "%"
resultnumber = 84.5

[[record]]
molecule = "CN[C@@H]1[C@@H](O)[C@@H](O[C@@H]2[C@@H](O)[C@H](O[C@H]3O[C@H](CN)[C@@H](O)[C@H](O)[C@H]3O)[C@@H](N)C[C@H]2NC(=O)[C@@H](O)CN)OC[C@]1(C)O"
measurementunits = "%"
resultnumber = 131

[[record]]
molecule = "COc1ccc([S+](=O)([O-])N(C(C)=O)c2ccccc2/C=C/c2cc[n+]([O-])cc2)cc1"
measurementunits = "%"
resultnumber = 125


---

- Test system: NOMO1
- assayName: cell viability relative to DMSO control; higher = less cytotoxic
- appliedConditions: RPMI 5 mM glucose + 10% FBS; 48 h; 5.12 µM
Reported cell viability values follow for various compounds
assayMetric: cell viability (%)

[[record]]
compound = "O=C(O)C1(Cc2cccc(Nc3nccs3)n2)CCC(Oc2cccc(Cl)c2F)CC1 (stereo not given)"
targetorsystem = "NOMO1"
resultnumber = 43.7

[[record]]
compound = "N[S+]([O-])(=O)C1=CC=C(NC/2=C/C(=O)C3=CC=CC=C3C2=O)C=C1"
targetorsystem = "NOMO1"
resultnumber = 126

[[record]]
compound = "C[C@@H](Oc1cc(-c2cnn(C3CCNCC3)c2)cnc1N)c1c(Cl)ccc(F)c1Cl"
targetorsystem = "NOMO1"
resultnumber = 96.3

[[record]]
compound = "O=C(C=CC#Cc1cccc(N[S+](=O)([O-])c2ccccc2)c1)NO"
targetorsystem = "NOMO1"
resultnumber = 41.9

[[record]]
compound = "Cc1onc(-c2ccccc2Cl)c1C(=O)N[C@@H]1C(=O)N2[C@@H]1SC(C)(C)[C@@H]2C(=O)[O-]"
targetorsystem = "NOMO1"
resultnumber = 99.5

[[record]]
compound = "Cn1cnc2c(F)c(Nc3ccc(Br)cc3F)c(C(=O)NOCCO)cc21"
targetorsystem = "NOMO1"
resultnumber = 37.5

[[record]]
compound = "C[C@]12CC[C@H]3[C@@H](CC[C@H]4NC(=O)\\C=C/[C@]34C)[C@@H]1CC[C@@H]2C(=O)NC5=CC(=CC=C5C(F)(F)F)C(F)(F)F"
targetorsystem = "NOMO1"
resultnumber = 107

[[record]]
compound = "CC(C)OC(=O)/C1=C/N(CC(C)(C)C2=C1[NH]C3=CC=CC=C23)C(=O)C4=CC=C(F)C(=C4)F"
targetorsystem = "NOMO1"
resultnumber = 82.7

[[record]]
compound = "CC(C)(C)NC(=O)Nc1cccc(Nc2ncc(F)c(NC(C)(C)CO)n2)c1"
targetorsystem = "NOMO1"
resultnumber = 111

[[record]]
compound = "COc1ccc([C@@H]2CC(=O)c3c(O)cc(O[C@@H]4O[C@H](CO[C@@H]5O[C@@H](C)[C@H](O)[C@@H](O)[C@H]5O)[C@@H](O)[C@H](O)[C@H]4O)cc3O2)cc1O"
targetorsystem = "NOMO1"
resultnumber = 120

[[record]]
compound = "O=C1[C@H](Cc2ccc(O)cc2)N2C(=O)CCN(C(=O)NCc3ccccc3)[C@H]2CN1Cc1cccc2ccccc12"
targetorsystem = "NOMO1"
resultnumber = 73.1

[[record]]
compound = "CC(C)(C#N)c1cc(Cn2cncn2)cc(C(C)(C)C#N)c1"
targetorsystem = "NOMO1"
resultnumber = 44.2

[[record]]
compound = "COc1ccc([S+](=O)([O-])N(C(C)=O)c2ccccc2/C=C/c2cc[n+]([O-])cc2)cc1"
targetorsystem = "NOMO1"
resultnumber = 21

[[record]]
compound = "O=C1NC(=O)/C(=C/c2ccc3nccc(-c4ccncc4)c3c2)S1"
targetorsystem = "NOMO1"
resultnumber = 36.8

[[record]]
compound = "CN[C@@H](C)[C@H]1[C@H](O)C[C@@]2(C)[C@@H]3CC[C@H]4C(C)(C)[C@@H](NC)CC[C@@]45C[C@@]35CC[C@]12C"
targetorsystem = "NOMO1"
resultnumber = 93.9

[[record]]
compound = "C[S+](=O)([O-])Nc1ccc([N+](=O)[O-])cc1Oc1ccccc1"
targetorsystem = "NOMO1"
resultnumber = 101

[[record]]
compound = "CCC[S+]([O-])c1ccc2[nH]c(NC(=O)OC)nc2c1 (stereo not given)"
targetorsystem = "NOMO1"
resultnumber = 93.8

[[record]]
compound = "C[C@@]12C(=O)OC(=O)[C@@]1(C)C1CCC2O1"
targetorsystem = "NOMO1"
resultnumber = 79.9

[[record]]
compound = "N#CCNC(=O)c1ccc(-c2ccnc(Nc3ccc(N4CCOCC4)cc3)n2)cc1"
targetorsystem = "NOMO1"
resultnumber = 102

[[record]]
compound = "Cc1nn(Cc2ccccc2Cl)c(C)c1CN(C)CC(O)COc1ccc(Cl)cc1 (stereo not given)"
targetorsystem = "NOMO1"
resultnumber = 90.8

[[record]]
compound = "CCOC(=O)N1CCN(/[N+]([O-])=N/Oc2ccc([N+](=O)[O-])cc2C#N)CC1"
targetorsystem = "NOMO1"
resultnumber = 24.5

[[record]]
compound = "CCc1ccc(CCOc2ccc(CC3SC(=O)NC3=O)cc2)nc1 (stereo not given)"
targetorsystem = "NOMO1"
resultnumber = 106

[[record]]
compound = "CNCCCC12CCC(c3ccccc31)c1ccccc12"
targetorsystem = "NOMO1"
resultnumber = 79.2

[[record]]
compound = "O=C(Nc1cccc(C(F)(F)F)c1)Nc1cc([S+](=O)([O-])NC2CC2)ccc1-c1ccsc1"
targetorsystem = "NOMO1"
resultnumber = 105

[[record]]
compound = "NC\\1=N\\C(=O)N(\\C=C1)[C@@H]2O[C@H](CO)[C@@H](O)[C@@H]2O"
targetorsystem = "NOMO1"
resultnumber = 14.6

